Please go through the items and note down their TGI.
- Tested on: SNB-75 CNS
- PROTOCOL: NCI tumour cell line growth inhibition, 48 h
Residues, ends and D or L forms follow the SMILES beside them. *: point of attachment. Boc = CC(C)(C)OC(=O)*; OBn = c1ccc(CO*)cc1

Cc1nn(C(=O)c2ccccc2O)c2c1C(c1ccc3ccccc3c1O)SC(N)=N2 (centres undefined)
> 10 µM
COc1ccc(/C(=N/O)C(c2ccc(OC)cc2)C2C(=O)Oc3ccccc32)cc1 (centres undefined)
> 100 µM
COC1/C=C\C=C(/C)C(=O)NC2=CC(=O)C(N)=C(CC(C)CC(OC)C(O)C(C)C=C(C)C1OC(N)=O)C2=O (centres undefined)
11.3 µM
CC1=C(O)C(=O)C(C2=C(O)C(=O)C(C)=C(O)C2=O)=C(O)C1=O
> 100 µM

// each listed compound needs a value for TGI
1. O=C([O-])c1cc(I)cc(I)c1[OH2+].O=C([O-])c1cc(I)cc(I)c1[OH2+].[Mn+2]
2. CC(C)CC(NC(=O)OC(C)(C)C)C(=O)NC(CC(=O)OCc1ccccc1)C(N)=O (stereo not drawn) (Boc-Leu-Asp(OBn)-NH2; configuration not given here)

Key:
1. 99.8 µM
2. > 100 µM

For each of the compounds below, note its TGI.
1. C[n+]1c(-c2ccccc2)c2cc(N)ccc2c2ccccc21
2. Cc1cc(Nc2ccc(S(=O)(=O)O)cc2)c2ccccc2n1
3. CCNC(=O)N(CC)CN(CC)C(=O)NCC
4. CC1CCC(=O)NCCCCC(=O)N1 (centres undefined)

Key:
3.07 µM
> 100 µM
> 100 µM
> 100 µM

Hi there! I need TGI for each item below, if you can.
1. O=C(c1ccccc1)N1CCN2CCN=C(c3ccccc3)C21c1ccccc1 (centres undefined)
2. COC(=O)/C=C/C1C2C3(CCC(C)C12C)OCCS3 (centres undefined)
3. COC(=O)[C@@H](C)C[C@H](Cc1ccc2ccccc2c1)NC(=O)c1csc([C@@H](C[C@H](C(C)C)N(C)C(=O)[C@@H](NC(=O)[C@H]2CCCCN2C)C(C)C)OC(C)=O)n1

Key:
1: > 100 µM; 2: > 100 µM; 3: > 25 µM

Exercise: TGI lookup needed for CCOC(=O)c1csc(NC(=O)CN(C)C)n1 , thanks.
Key: > 100 µM
